- System: Ri-1 cells
- ASSAY_NOTES: BTK (wt) cell proliferation, Ri-1 (CellTiter-Glo, 72 h);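 note: viable cells quantified as cellular ATP luminescence, proliferation normalized to a time-zero plate and the DMSO control, compounds tested across a dilution series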
- Type: cell-based
- CONDITION_PARAMETERS: Ri-1, 72 h, Ri-1 cells, 72 h, CellTiter-Glo; read-out: BTK WT Ri-1 GI50
Where a name gives a salt, the structure may show the parent alone.
MEASUREMENT_LABEL: GI50 (nM)
Give bare numbers, in nM.

Solved entries:
COMPOUND | MEASUREMENT_LABEL | UNIT_DESCRIPTOR | VALUE_REPORTED
C=CC(=O)Nc1cc(Nc2ncnc(Nc3cc(F)c(F)cc3C(C)(O)CC)n2)c(OC)cc1N1CCC[C@@H]1CN(C)C (stereo partly drawn) [Compound 57] | GI50 | nM | 34.6
C=CC(=O)Nc1cc(Nc2nccc(Nc3cc(Cl)c(F)cc3C(C)(C)O)n2)c(OC)cc1N1CC(F)(F)C[C@@H]1CN(C)C [Compound 82] | GI50 | nM | 310
C=CC(=O)Nc1cc(Nc2ncnc(Nc3cc(F)c(C4CC4)cc3C(C)(C)O)n2)c(OC)cc1N1CC[C@@H]2CN(C)C[C@@H]21 [Compound 45] | GI50 | nM | 11.6
C=CC(=O)Nc1cc(Nc2ncnc(Nc3cc(Cl)c(F)cc3C3(O)CCC3)n2)c(OC)cc1N(C)CCN(C)C [Compound 72, formic acid salt] | GI50 | nM | 33.3
C=CC(=O)Nc1cc(Nc2ncnc(Nc3cc(Cl)c(F)cc3C(C)(O)CC)n2)c(OC)cc1N1CC[C@@H]1CN(C)C (stereo partly drawn) [Compound 56] | GI50 | nM | 13.4

Would you kindly look at the next entry?
Q) I have this compound here, C=CC(=O)Nc1cc(Nc2ncnc(Nc3cc(F)c(F)cc3C(C)(C)O)n2)c(OC)cc1N1CCOC[C@@H]1CN(C)C [Compound 35] , and I need its recorded GI50.
A) 699

* * *

- Test system: Ba/F3 EGFR ASV ins cells
- ASSAY_NOTES: Cell proliferation, Ba/F3 EGFR ASV ins (CellTiter-Glo, 72 h);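 note: IL3-independent Ba/F3 cells transduced with EGFR V769_D770insASV, cellular ATP luminescence after compound exposure, growth relative to DMSO control with the day-0 baseline reading subtracted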
- Assay type: cell-based
- CONDITION_PARAMETERS: Ba/F3 EGFR, 72 h, Ba/F3 EGFR ASV ins, 72 h proliferation; read-out: EGFR Exon20 ASV insertion GI50
Field: GI50. Provide a value for each of the molecules that follow.
Answers are plain numbers, in nM.

Below, each entry is followed by its recorded GI50 result.
MOLECULE | GI50 / nM
C=CC(=O)Nc1cc(Nc2ncnc(Nc3cc(F)c(F)cc3C(C)(O)CC)n2)c(OC)cc1N(C)CCN(C)C (centres unmarked) | 31.9
C=CC(=O)Nc1cc(Nc2ncnc(Nc3cnc(F)cc3C(C)(C)O)n2)c(OC)cc1N(C)CCN(C)C | 252
C=CC(=O)Nc1cc(Nc2nccc(Nc3cc(Cl)c(F)cc3C(C)(C)O)n2)c(OC)cc1N1C[C@@H](C)C[C@@H]1CN(C)C | 69.6

// input: 3 molecules below; output: GI50 for each
1. C=CC(=O)Nc1cc(Nc2nccc(Nc3cc(Cl)c(F)cc3C(C)(C)O)n2)c(OC)cc1N(C)CCN(C)C
2. C=CC(=O)Nc1cc(Nc2ncnc(Nc3cc(F)c(F)cc3C(C)(C)O)n2)c(OC)cc1N1CC[C@@H]2CN(C)C[C@@H]21
3. C=CC(=O)Nc1cc(Nc2ncnc(Nc3cc(Cl)c(F)cc3C(C)(C)O)n2)c(OC)cc1N1CCOC[C@@H]1CN(C)C

A)
1. 37.8
2. 19.6
3. 25.7

Give GI50 for each listed item.
1. C=CC(=O)Nc1cc(Nc2ncnc(Nc3cc(F)c(F)cc3C(C)(C)O)n2)c(OC)cc1N1CCC[C@@H]1CN(C)C
2. C=CC(=O)Nc1cc(Nc2ncnc(Nc3cc(Cl)c(F)cc3C(C)(C)O)n2)c(OC)cc1N(C)CCN1CCC[C@@H]1C
3. C=CC(=O)Nc1cc(Nc2ncc(Cl)c(Nc3cc(Cl)c(F)cc3C(C)(C)O)n2)c(OC)cc1N(C)CCN(C)C
4. C=CC(=O)Nc1cc(Nc2ncnc(Nc3cc(C4CC4)c(F)cc3C(C)(C)O)n2)c(OC)cc1N(C)CCN(C)C
5. C=CC(=O)Nc1cc(Nc2nccc(Nc3cc(Cl)c(F)cc3C(C)(C)O)n2)c(OC)cc1N1CC[C@H](N(C)C)C1
6. C=CC(=O)Nc1cc(Nc2ncnc(Nc3cc(Cl)c(F)cc3C(C)(C)O)n2)c(OC)cc1N(C)CCN(C)C

A)
1. 8.2
2. 144
3. 35.7
4. 90.6
5. 156
6. 25.2

Each of the following entries comes with a recorded value; kindly state GI50 for each.
1. C=CC(=O)Nc1cc(Nc2ncnc(Nc3cccnc3C(C)(C)O)n2)c(OC)cc1N(C)CCN(C)C
2. C=CC(=O)Nc1cc(Nc2ncnc(Nc3cc(F)c(Cl)cc3C(C)(C)O)n2)c(OC)cc1N1CC[C@@H]2CN(C)C[C@@H]21

A)
250
21.8

* * *

- System: WT EGFR cell line A-431
- ASSAY_NOTES: Cell proliferation, WT EGFR A431 (CellTiter-Glo, 72 h);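 note: proliferation from a luminescent ATP viability signal, expressed as 100 × (treated minus time-zero plate) over (DMSO control minus time-zero plate), cells grown with 10% FBS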
- Assay type: cell-based
- CONDITION_PARAMETERS: Homo sapiens, A-431, 72 h, A431, 72 h proliferation; read-out: EGFR WT A431 GI50
MEASUREMENT_LABEL: GI50
Provide a numeric answer, followed by its unit.

Each compound below has a reported value. Please supply its GI50.
1. C=CC(=O)Nc1cc(Nc2ncnc(Nc3cc(F)c(C4CC4)cc3C(C)(C)O)n2)c(OC)cc1N(C)CCN(C)C
2. C=CC(=O)Nc1cc(Nc2ncnc(Nc3cc(F)c(C4CC4)cc3C(C)(C)O)n2)c(OC)cc1N1CCC[C@@H]1CN(C)C

A)
1. 7.5 nM
2. 4.5 nM

Quick request: GI50 for each listed item, please.
1. C=CC(=O)Nc1cc(Nc2ncc(Cl)c(Nc3cc(Cl)c(F)cc3C(C)(C)O)n2)c(OC)cc1N1CC[C@@H](N(C)C)C1
2. C=CC(=O)Nc1cc(Nc2nccc(Nc3cc(Cl)c(Cl)cc3C(C)(C)O)n2)c(OC)cc1N1CC[C@@H]1CN(C)C

A)
1. 43 nM
2. 34.9 nM

* * *

Hi there, I'd appreciate the recorded pIC50 for every entry that follows.
- SYSTEM_TESTED: human EGFR exon 20 H773_V774insNPH (Homo sapiens, UniProt P00533, INS773NPH)
- Sequence (P00533 with tags, fused parts or gaps INS773NPH): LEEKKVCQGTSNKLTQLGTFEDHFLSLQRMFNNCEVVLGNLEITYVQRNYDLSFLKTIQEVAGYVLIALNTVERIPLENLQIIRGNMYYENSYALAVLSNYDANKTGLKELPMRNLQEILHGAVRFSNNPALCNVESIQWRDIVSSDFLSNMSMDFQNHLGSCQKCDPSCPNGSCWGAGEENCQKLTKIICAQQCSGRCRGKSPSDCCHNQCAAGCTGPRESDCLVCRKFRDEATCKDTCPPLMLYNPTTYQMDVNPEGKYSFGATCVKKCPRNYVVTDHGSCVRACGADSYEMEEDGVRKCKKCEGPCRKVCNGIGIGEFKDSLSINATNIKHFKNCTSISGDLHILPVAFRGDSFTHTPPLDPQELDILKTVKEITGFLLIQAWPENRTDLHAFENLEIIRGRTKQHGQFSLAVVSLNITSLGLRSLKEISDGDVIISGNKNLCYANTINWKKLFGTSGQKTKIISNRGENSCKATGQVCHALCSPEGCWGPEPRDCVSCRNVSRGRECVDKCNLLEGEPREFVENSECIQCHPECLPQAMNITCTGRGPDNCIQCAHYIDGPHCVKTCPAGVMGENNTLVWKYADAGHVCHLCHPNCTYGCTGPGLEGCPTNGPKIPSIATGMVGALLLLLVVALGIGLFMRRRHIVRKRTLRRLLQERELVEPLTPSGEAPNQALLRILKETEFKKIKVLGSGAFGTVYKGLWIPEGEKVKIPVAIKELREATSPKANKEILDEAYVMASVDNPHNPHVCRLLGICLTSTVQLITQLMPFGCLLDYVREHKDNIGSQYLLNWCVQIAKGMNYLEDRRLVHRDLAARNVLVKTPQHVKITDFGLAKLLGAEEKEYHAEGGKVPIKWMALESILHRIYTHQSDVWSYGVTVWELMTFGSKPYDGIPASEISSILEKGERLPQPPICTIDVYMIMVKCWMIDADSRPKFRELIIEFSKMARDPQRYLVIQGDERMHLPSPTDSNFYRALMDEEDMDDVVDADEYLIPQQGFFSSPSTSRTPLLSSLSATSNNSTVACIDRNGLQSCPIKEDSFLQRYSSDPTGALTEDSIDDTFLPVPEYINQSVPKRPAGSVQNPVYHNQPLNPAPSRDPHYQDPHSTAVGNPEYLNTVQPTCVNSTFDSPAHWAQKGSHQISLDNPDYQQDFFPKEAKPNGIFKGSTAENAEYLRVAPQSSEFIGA
- ASSAY_NOTES: EGFR Exon20 NPH insertion cellular phosphorylation inhibition (MSD pEGFR Y1068/total EGFR)
- CONDITION_PARAMETERS: Ba/F3 EGFR NPH ins cells, 4 h compound, p-EGFR(Y1068)/total EGFR
Numbers only, as −log10 of the molar value.

COMPOUND | pIC50
C=CC(=O)Nc1cc(Nc2ncnc(Nc3cc(F)c(F)cc3C(C)(C)O)n2)c(OC)cc1N1CCOC[C@@H]1CN(C)C | 8.04
C=CC(=O)Nc1cc(Nc2nccc(Nc3cc(Cl)c(F)cc3C(C)(C)O)n2)c(OC)cc1N1CC[C@H](N(C)C)C1 | 7.29
C=CC(=O)Nc1cc(Nc2ncnc(Nc3ccc(C)nc3C(C)(C)O)n2)c(OC)cc1N(C)CCN(C)C | 7.33
C=CC(=O)Nc1cc(Nc2ncnc(Nc3cc(F)c(F)cc3C(C)(O)CC)n2)c(OC)cc1N1CCC[C@@H]1CN(C)C (stereo partly shown) | 8.07
C=CC(=O)Nc1cc(Nc2ncnc(Nc3cc(F)c(Cl)cc3C(C)(C)O)n2)c(OC)cc1N1CC[C@@H](N(C)C)C1 | 7.54

Provide pIC50 values for the following items, in order.
1. C=CC(=O)Nc1cc(Nc2ncc(OC)c(Nc3cc(Cl)c(F)cc3C(C)(C)O)n2)c(OC)cc1N(C)CCN(C)C
2. C=CC(=O)Nc1cc(Nc2ncnc(Nc3cc(F)c(F)cc3C(C)(C)O)n2)c(OC)cc1N(C)C[C@H]1CCCN1C
3. [2H]C([2H])([2H])N(CCN(C)c1cc(OC)c(Nc2ncnc(Nc3cc(F)c(Cl)cc3C(C)(C)O)n2)cc1NC(=O)C=C)C([2H])([2H])[2H]
4. C=CC(=O)Nc1cc(Nc2ncnc(Nc3cc4ccn(C)c4cc3C(C)(C)O)n2)c(OC)cc1N(C)CCN(C)C
5. C=CC(=O)Nc1cc(Nc2ncnc(Nc3cc(F)c(F)cc3C(C)(C)O)n2)c(OC)cc1N1CCC[C@@H]1CN(C)C

A)
1: 7.09; 2: 7.60; 3: 8.07; 4: 7.83; 5: 8.17

* * *

- SYSTEM_TESTED: human EGFR exon 20 H773_V774insNPH (Homo sapiens, UniProt P00533, INS773NPH)
- ASSAY_NOTES: EGFR Exon20 NPH insertion cellular phosphorylation inhibition (MSD pEGFR Y1068/total EGFR);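 note: IL3-independent Ba/F3 cells with constitutively phosphorylated EGFR, compound exposure at 37 °C under 5% CO2, electrochemiluminescent MSD measurement of the p-EGFR to total EGFR ratio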
- CONDITION_PARAMETERS: Ba/F3 EGFR NPH ins cells, 4 h compound, p-EGFR(Y1068)/total EGFR
MEASUREMENT_LABEL: IC50 (nM)
Answers are plain numbers, in nM.

Example cases with answers are listed next.
MOLECULE | SYSTEM_TESTED | MEASUREMENT_LABEL | VALUE_REPORTED
C=CC(=O)Nc1cc(Nc2nccc(Nc3cc(Cl)c(F)cc3C(C)(O)C(F)(F)F)n2)c(OC)cc1N1CC[C@@H](N(C)C)C1 (some centres unmarked) | human EGFR exon 20 H773_V774insNPH (Homo sapiens, UniProt P00533, INS773NPH) | IC50 | 79.9
C=CC(=O)Nc1cc(Nc2ncnc(Nc3cc(F)c(C4CC4)cc3C(C)(C)O)n2)c(OC)cc1N1CCC[C@@H]1CN(C)C | human EGFR exon 20 H773_V774insNPH (Homo sapiens, UniProt P00533, INS773NPH) | IC50 | 2.5
C=CC(=O)Nc1cc(Nc2ncnc(Nc3cc(F)c(F)cc3C(C)(O)CC)n2)c(OC)cc1N1CCC[C@H]1CN(C)C (some centres unmarked) | human EGFR exon 20 H773_V774insNPH (Homo sapiens, UniProt P00533, INS773NPH) | IC50 | 297
C=CC(=O)Nc1cc(Nc2ncnc(Nc3cc(Cl)c(F)cc3C(C)(C)O)n2)c(OC)cc1N1CC(CN(C)C)C1 | human EGFR exon 20 H773_V774insNPH (Homo sapiens, UniProt P00533, INS773NPH) | IC50 | 45.6
C=CC(=O)Nc1cc(Nc2nccc(Nc3cc(Cl)c(F)cc3C(C)(O)CC)n2)c(OC)cc1N1CC[C@@H](N(C)C)C1 (single isomer, unassigned) [Compound 77] | human EGFR exon 20 H773_V774insNPH (Homo sapiens, UniProt P00533, INS773NPH) | IC50 | 44.8

Hi! Can you tell me IC50 for each of these molecules?
1. C=CC(=O)Nc1cc(Nc2ncnc(Nc3cc(Cl)c(F)cc3C(C)(C)O)n2)c(OC)cc1N(C)C[C@@H]1CCCN1C
2. C=CC(=O)Nc1cc(Nc2ncnc(Nc3cc(F)c(F)cc3C(C)(O)CC)n2)c(OC)cc1N1CC[C@H]2CN(C)C[C@H]21 (some centres unmarked)
3. C=CC(=O)Nc1cc(Nc2ncnc(Nc3cc(Cl)c(F)cc3C(C)(C)O)n2)c(OC)cc1N(C)CCN(C)C
4. C=CC(=O)Nc1cc(Nc2ncnc(Nc3cc(F)c(F)cc3C(C)(O)CC)n2)c(OC)cc1N1CC[C@@H]1CN(C)C (some centres unmarked)

A)
6.8
2630
9.7
20.1

Consider the following items and state reported IC50 for each.
1. C=CC(=O)Nc1cc(Nc2ncnc(Nc3cc(Cl)c(F)cc3C(C)(C)O)n2)c(OC)cc1N1CC[C@@H]1CN(C)C
2. C=CC(=O)Nc1cc(Nc2ncc(Cl)c(Nc3cc(Cl)c(F)cc3C(C)(C)O)n2)c(OC)cc1N1CC[C@@H](N(C)C)C1
3. C=CC(=O)Nc1cc(Nc2ncnc(Nc3cc(C4CC4)c(F)cc3C(C)(C)O)n2)c(OC)cc1N(C)CCN(C)C

A)
19.6
65.1
27.9

For every record below, what is its IC50?
1. C=CC(=O)Nc1cc(Nc2nccc(Nc3cc(Cl)c(F)cc3C(C)(C)O)n2)c(OC)cc1N1C[C@@H]2CN(C)C[C@@H]21
2. C=CC(=O)Nc1cc(Nc2ncnc(Nc3cc(F)c(Cl)cc3C(C)(C)O)n2)c(OC)cc1N1CCC[C@@H]1CN(C)C
3. C=CC(=O)Nc1cc(Nc2ncnc(Nc3ccc(C(F)(F)F)cc3C(C)(C)O)n2)c(OC)cc1N(C)CCN(C)C

A)
[13.5, 3.9, 40.1]
